This collection of values is drawn from patent US20250270221A1.

Test: Aqueous solubility of crystalline ruxolitinib di-hydrate
Assay type: physicochemical
Details: 20 °C, aqueous buffer, thermodynamic from solid; pH 6.5 (PBS), 20-25° C.
outcomeMeasure: solubility
Don't forget the unit after the number, please.

Task item: Looking for the measured solubility of N#CC[C@H](C1CCCC1)n1cc(-c2ncnc3[nH]ccc23)cn1 [Ruxolitinib Di-hydrate] , can you help?
Reply: 106 µg/mL

* * *

Assay: Aqueous solubility of crystalline ruxolitinib di-hydrate
Assay type: physicochemical
Settings: 20 °C, fassif, thermodynamic from solid; FeSSIF (pH 6.5), 20-25° C.
outcomeMeasure: solubility

Task item: GET /values?readout=solubility&item= N#CC[C@H](C1CCCC1)n1cc(-c2ncnc3[nH]ccc23)cn1 [Ruxolitinib Di-hydrate]
Reply: 112 µg/mL
